Molecular target: T1, human CD19 on WSU-DLCL2 cells (human, UniProt P15391 20-556)
T1 construct: Endogenous CD19 of the B-cell non-Hodgkin lymphoma line WSU-DLCL2; also called CD19+ WSU-DLCL2; human CD19-expressing tumor cells
T1 sequence: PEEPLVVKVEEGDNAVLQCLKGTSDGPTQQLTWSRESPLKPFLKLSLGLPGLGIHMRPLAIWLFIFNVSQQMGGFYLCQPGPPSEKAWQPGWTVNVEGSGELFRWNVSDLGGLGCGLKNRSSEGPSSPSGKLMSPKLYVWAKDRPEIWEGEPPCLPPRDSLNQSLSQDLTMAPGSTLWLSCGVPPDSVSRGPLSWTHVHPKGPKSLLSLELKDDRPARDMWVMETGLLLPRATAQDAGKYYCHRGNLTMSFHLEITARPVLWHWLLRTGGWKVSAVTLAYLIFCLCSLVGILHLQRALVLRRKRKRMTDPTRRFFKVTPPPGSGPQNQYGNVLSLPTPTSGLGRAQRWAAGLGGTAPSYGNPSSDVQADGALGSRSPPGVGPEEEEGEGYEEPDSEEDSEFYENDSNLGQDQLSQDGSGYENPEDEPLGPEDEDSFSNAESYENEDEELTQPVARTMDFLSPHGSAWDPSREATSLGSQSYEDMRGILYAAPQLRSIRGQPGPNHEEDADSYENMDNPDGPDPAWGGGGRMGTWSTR
Test: flow cytometry on CD19+ WSU-DLCL2 cells, PE anti-human IgG F(ab')2 detection
pEC50: −log10 of the molar value.
experimental-endpoint: pEC50

>>> result("anti-CD19 clone 2B11 in P329GLALA human IgG1 format (antibody, V domains shown, also called CD19 (8B8-2B11)) VH: QVQLVQSGAEVKKPGASVKVSCKASGYTFTDYIMHWVRQAPGQGLEWMGYINPYNDGSKYTEKFQGRVTMTSDTSISTAYMELSRLRSDDTAVYYCARGTYYYGPQLFDYWGQGTTVTVSS VL: DIVMTQTPLSLSVTPGQPASISCKSSQSLETSTGTTYLNWYLQKPGQSPQLLIYRVSKRFSGVPDRFSGSGSGTDFTLKISRVEAEDVGVYYCLQLLEDPYTFGQGTKLEIKR")
10.47
>>> result("anti-CD19 clone 5B08 in P329GLALA human IgG1 format (antibody, V domains shown, also called CD19 (8B8-5B08)) VH: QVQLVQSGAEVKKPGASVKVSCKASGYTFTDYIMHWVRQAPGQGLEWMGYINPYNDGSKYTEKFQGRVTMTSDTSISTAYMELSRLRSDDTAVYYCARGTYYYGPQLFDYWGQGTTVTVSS VL: DIVMTQTPLSLSVTPGQPASISCKSSQSLETSTGNTYLNWYLQKPGQSPQLLIYRVSKRFSGVPDRFSGSGSGTDFTLKISRVEAEDVGVYYCLQLDSYPNTFGQGTKLEIKR")
10.85
>>> result("anti-CD19 clone 2B03 in P329GLALA human IgG1 format (antibody, V domains shown, also called CD19 (8B8-2B03)) VH: QVQLVQSGAEVKKPGASVKVSCKASGYTFTDYITHWVRQAPGQGLEWMGYINPYNDGSKYTEKFQGRVTMTSDTSISTAYMELSRLRSDDTAVYYCARGTYYYGPDLFDYWGQGTTVTVSS VL: DIVMTQTPLSLSVTPGQPASISCKSSQSLETSTGNTYLNWYLQKPGQSPQLLIYRVSKRFSGVPDRFSGSGSGTDFTLKISRVEAEDVGVYYCLQLTHVPYTFGQGTKLEIKR")
10.39
>>> result("anti-CD19 clone 7H07 in P329GLALA human IgG1 format (antibody, V domains shown, also called CD19 (8B8-7H07)) VH: QVQLVQSGAEVKKPGASVKVSCKASGYTFTDYIMHWVRQAPGQGLEWMGYINPYNDGSKYTEKFQGRVTMTSDTSISTAYMELSRLRSDDTAVYYCARGTYYYGSELFDYWGQGTTVTVSS VL: DIVMTQTPLSLSVTPGQPASISCKSSQSLETSTGNTYLNWYLQKPGQSPQLLIYRVSKRFSGVPDRFSGSGSGTDFTLKISRVEAEDVGVYYCLQATHIPYTFGQGTKLEIKR")
10.47
>>> result("anti-CD19 clone 5H09 in P329GLALA human IgG1 format (antibody, V domains shown, also called CD19 (8B8-5H09)) VH: QVQLVQSGAEVKKPGASVKVSCKASGYTFTDYIMHWVRQAPGQGLEWMGYINPYNDGSKYTEKFQGRVTMTSDTSISTAYMELSRLRSDDTAVYYCARGTYYYGSALFDYWGQGTTVTVSS VL: DIVMTQTPLSLSVTPGQPASISCKSSQSLESSTGNTYLNWYLQKPGQSPQLLIYRVSKRFSGVPDRFSGSGSGTDFTLKISRVEAEDVGVYYCLQLIDYPVTFGQGTKLEIKR")
10.70
